Target: human prominin-1 expressed in E. coli as a 6*HIS fusion protein (human) (UniProt O43490)
Test: phage ELISA on plate-coated human prominin-1, HRP-conjugated anti-M13
property name: A450 (A450)
One number for each entry, in A450.

Example binders with recorded A450:
- binder: "scFv clone No. 4, displayed on phage (scFv) scFv: AQAAELDIVLTQSPAIMSASPGEKVTISCSASSSVGYMYWYQQKPGSSPKPWIYRPSNLASGVPARFSGSGSGTSYSLTISSMEAEDAATYYCQQYHSYPPTFGAGTKLELKSSGGGGSGGGGGGSSRSSLEVKLVESGPELKKPGETVKISCKASGYTFTDYSMHWVNQAPGKGLKWMGWINTETGEPSYADDFKGRFAFSLETSASTAYLQINNLKNEDTATYFCATDYGDYFDYWGQGTTLTVSSAKTTPPSVTSGQ"
  A450, A450: 1
- binder: "scFv clone No. 11, displayed on phage (scFv) scFv: AQAAELDIVLSQSPAIMSASPGEKVTISCSASSSVSYMYWYQQKPGSSPKPWIYRTSNLASGVPARFSGSGSGTSYSLTISSMEAEDAATYYCQQYHSYPPTFGAGTKLELKSSGGGGSGGGGGGSSRSSLEVKLVESGPELKKPGETVKISCKASGYTFTDYSMHWVNQAPGKGLKWMGWINTETGEPSYADDFKGRFAFSLETSASTAYLQINNLKNEDTATYFCATDYGDYFDYWGQGTTLTVSSAKTTPPSVTSGQAGQ"
  A450, A450: 1.4

Name the recorded A450 of the item scFv clone No. 23, displayed on phage (scFv) scFv: AQAAELDIVLTQSPAIMSASPGEKVTISCSASSSVSYMYWYQQKPGSSPKPWIYRPSNLASGVPARFSGSGSGTSYSLTISSMEAEDAATYYCQQYHSYPPTFGAGTKLELKSSGGGGSGGGGGGSSRSSLEVQLVESGPELKKPGETVKISCKASGYTFTDYSMHWVNQAPGKGLKWMGWINTETGEPSYADDFKGRFAFSLETSASTAYLQINNLKNEDTATYFCATDYGDYFDYWGQGTTLTVSSAKTTAPSVTSGQAGQ in your answer.
1.1
